test system: OVCAR-5 ovarian; assay: NCI tumour cell line growth inhibition, 48 h
TEST READOUT: TGI

Some solved cases for reference:
CSC1=NCC2(S1)c1ccccc1N(C(=O)OC(C)(C)C)C2N1CCCCC1 (stereo not drawn)
> 100 µM
O=[N+]([O-])c1ccc(C(Nc2ccccc2)c2ccc3cccnc3c2O)cc1 (stereo not drawn)
> 100 µM

Shift focus to the following entry.
Dear colleague, I am looking for the recorded TGI of the following molecule: `Cc1ccc(-c2n[nH]c(=O)n2/N=C\c2ccccc2)cc1`
> 100 µM

----------
Item-by-item account of TGI
tested on: OVCAR-3 ovarian; experiment: NCI tumour cell line growth inhibition, 48 h
Number only, in µM; omit the unit.

C=[CH][Sn]([CH]=C)([O]c1cccc2cccnc12)[O]c1cccc2cccnc12
10
COc1ccc(C2CCc3cc4c(cc3/C2=N/OC(C)=O)OCO4)cc1OC (configuration not stated)
55.9

Shift focus to the following entry.
Dear colleague, I am looking for the recorded TGI of the following compound: `O=C(Cc1csc2nc(-c3ccc(Br)cc3)cn12)N/N=C/c1ccc(O)cc1`
49.4

The values you see were collected from PubChem BioAssay (NCI).
